# EXPERIMENTAL_SYSTEM: human A2AAR (Homo sapiens, UniProt P29274)
# Sequence (P29274 whole entry): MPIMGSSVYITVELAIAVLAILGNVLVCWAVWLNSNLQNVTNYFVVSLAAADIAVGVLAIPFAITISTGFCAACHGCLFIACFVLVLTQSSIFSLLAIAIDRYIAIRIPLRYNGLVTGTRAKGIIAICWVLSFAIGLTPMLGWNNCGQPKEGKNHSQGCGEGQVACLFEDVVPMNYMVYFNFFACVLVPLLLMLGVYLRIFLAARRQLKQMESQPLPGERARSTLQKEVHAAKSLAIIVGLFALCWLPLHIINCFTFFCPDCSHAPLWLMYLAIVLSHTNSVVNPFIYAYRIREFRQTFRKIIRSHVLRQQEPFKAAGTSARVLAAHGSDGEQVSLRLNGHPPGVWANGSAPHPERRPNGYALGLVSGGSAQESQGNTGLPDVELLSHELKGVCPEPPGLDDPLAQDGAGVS
# TEST_SUMMARY: Radioligand binding assay, A2AAR
MEASUREMENT_TYPE: pKi
Units for pKi: none; it is -log10 of a concentration expressed in mol/L.

[ask] What does the data say about its pKi? Entry: Nc1ncc(CO)c2c1ncn2C1OC(CO)C(O)C1O (stereo not shown)
[reply] 6.99

* * *

# EXPERIMENTAL_SYSTEM: hAR subtype A1 in HEK293 cells (Homo sapiens, UniProt P30542)
# Sequence (P30542 1-326): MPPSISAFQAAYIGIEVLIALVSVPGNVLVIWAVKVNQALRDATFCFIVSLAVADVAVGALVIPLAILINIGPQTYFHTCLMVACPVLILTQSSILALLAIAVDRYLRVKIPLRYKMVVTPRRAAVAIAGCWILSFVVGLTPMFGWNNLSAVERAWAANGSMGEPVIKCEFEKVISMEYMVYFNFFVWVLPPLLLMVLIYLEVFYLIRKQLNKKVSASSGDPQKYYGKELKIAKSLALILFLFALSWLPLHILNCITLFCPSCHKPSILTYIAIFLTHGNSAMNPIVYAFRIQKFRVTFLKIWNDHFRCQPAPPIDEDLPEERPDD
# TEST_SUMMARY: Functional cAMP assay, A1AR
# CONDITION_SUMMARY: cAMP, HEK293, n=3
MEASUREMENT_TYPE: EC50
Answer with the number, then the unit.

[ask] Return reported EC50; argument: Nc1ncc(CO)c2c1ncn2C1OC(CO)C(O)C1O (stereo not shown) [Compound 4]
[reply] 180 nM
